Give measured IC50 for each item. Keep answers brief.
- tested.system: EED protein (His6-tagged full-length) binding to H3K27me3 polypeptide (Homo sapiens, UniProt O75530)
- Construct: His6-tagged full-length EED protein (441 amino acids)
- Sequence (O75530 whole entry): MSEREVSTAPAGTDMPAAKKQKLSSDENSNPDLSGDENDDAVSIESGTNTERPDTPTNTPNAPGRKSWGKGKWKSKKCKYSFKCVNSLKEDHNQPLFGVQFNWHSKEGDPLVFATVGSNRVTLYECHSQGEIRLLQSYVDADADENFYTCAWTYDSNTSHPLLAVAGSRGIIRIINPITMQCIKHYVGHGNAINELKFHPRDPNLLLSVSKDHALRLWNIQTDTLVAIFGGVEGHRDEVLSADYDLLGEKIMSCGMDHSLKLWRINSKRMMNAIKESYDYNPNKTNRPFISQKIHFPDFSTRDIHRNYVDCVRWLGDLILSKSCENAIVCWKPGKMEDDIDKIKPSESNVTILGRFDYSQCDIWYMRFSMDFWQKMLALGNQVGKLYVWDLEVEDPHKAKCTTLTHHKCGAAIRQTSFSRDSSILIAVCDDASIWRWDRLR
- measurement.notes: AlphaScreen evaluation of blocking the binding of EED to H3K27Me3
- measurement.context: EED 60 nM, biotinylated H3K27me3 75 nM, 30 minutes incubation
Provide only the numeric value, understood in µM.

Give its IC50 value. Item: CC(=O)OCCc1cnc2c(-c3cnc(NCc4c(F)ccc5c4CCO5)n4cnnc34)ccc(C)n12
0.0062

Give its IC50 value. Item: COC(=O)Cc1cnc2c(-c3cnc(NCc4c(F)ccc5c4CCO5)n4cnnc34)ccc(C)n12
0.0062

Give its IC50 value. Item: Fc1ccc2c(c1CNc1ncc(-c3cccc4cccnc34)c3nncn13)CCO2
0.0051

Give its IC50 value. Item: Fc1ccc2c(c1CNc1ncc(C3=CC=CN4CCN=C34)c3nncn13)CCO2
0.0052

Give its IC50 value. Item: CC(=O)c1c(C)nc2c(-c3cnc(NCc4c(F)ccc5c4CCO5)n4cnnc34)cccn12
0.0048

Give its IC50 value. Item: Fc1cc(-c2cnc(NCc3c(F)ccc4c3CCO4)n3cnnc23)c2nc(C(F)(F)F)cn2c1
0.0023

Give its IC50 value. Item: Cc1ccc(-c2cnc(NCc3c(F)ccc4c3CCO4)n3cnnc23)c2ncc(CCO)n12
0.0099

Give its IC50 value. Item: O=C(O)c1cnc2c(-c3cnc(NCc4c(F)ccc5c4CCO5)n4cnnc34)cccn12
0.0051

Give its IC50 value. Item: NCCC1=CS(=O)(=O)c2ccc(-c3cnc(NCc4c(F)ccc5c4[C@@H]4C[C@@H]4O5)n4cnnc34)cc21
0.0054

Give its IC50 value. Item: CCOC(=O)c1cnc2c(-c3cnc(NCc4c(F)ccc5c4CCO5)n4cnnc34)cccn12
0.0023

Give its IC50 value. Item: N#Cc1cnc2c(-c3cnc(NCc4c(F)ccc5c4CCO5)n4cnnc34)cccn12
0.0047

Give its IC50 value. Item: CC1=C(Cl)c2cc(-c3cnc(NCc4c(F)ccc5c4[C@H]4C[C@H]4O5)n4cnnc34)ccc2S1(=O)=O
0.011

Give its IC50 value. Item: Fc1ccc2c(c1CNc1ncc(-c3cccn4cnnc34)c3nncn13)[C@H]1C[C@H]1O2
0.0095

Give its IC50 value. Item: CC1=Cc2c(-c3cnc(NCc4c(F)ccc5c4CCO5)n4cnnc34)cccc2S1(=O)=O
0.0122

Give its IC50 value. Item: CCOC(=O)c1c(C(F)(F)F)nc2c(-c3cnc(NCc4c(F)ccc5c4CCO5)n4cnnc34)cccn12
0.029

Give its IC50 value. Item: O=S1(=O)C=Cc2c(-c3cnc(NCc4c(F)ccc5c4[C@H]4C[C@H]4O5)n4cnnc34)cccc21
0.0044

Give its IC50 value. Item: Cc1cn2cccc(-c3cnc(NCc4c(F)ccc5c4CCO5)n4cnnc34)c2n1
0.0141

Give its IC50 value. Item: CCOC(=O)c1c(O)nc2c(-c3cnc(NCc4c(F)ccc5c4CCO5)n4cnnc34)cc(F)cn12
0.0912
